Target: T1, human Chemokine like receptor 1 (human, UniProt Q99788 1-373)
T1 sequence (looked up): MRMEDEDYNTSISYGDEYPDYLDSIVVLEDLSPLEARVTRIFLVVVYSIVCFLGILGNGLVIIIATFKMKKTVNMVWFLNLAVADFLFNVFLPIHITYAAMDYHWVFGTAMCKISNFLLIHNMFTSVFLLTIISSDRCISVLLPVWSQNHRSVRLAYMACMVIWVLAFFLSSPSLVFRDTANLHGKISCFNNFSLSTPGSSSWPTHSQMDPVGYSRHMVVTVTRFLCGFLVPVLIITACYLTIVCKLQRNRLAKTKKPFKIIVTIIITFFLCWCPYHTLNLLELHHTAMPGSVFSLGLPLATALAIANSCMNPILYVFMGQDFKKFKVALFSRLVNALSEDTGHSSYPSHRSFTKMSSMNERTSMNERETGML
Assay: cell-based or functional assay
Square brackets hold non-standard residues; d marks the D form. Ends that are not written are not given here. * marks the point of attachment. Pro(5R-Ph) = O=C(O)[C@@H]1CC[C@H](c2ccccc2)N1; Bip = N[C@@H](Cc1ccc(-c2ccccc2)cc1)C(=O)O; Gly(Nα-CH2CH2CONH2) = NC(=O)CCNCC(=O)O; 2Nal = N[C@@H](Cc1ccc2ccccc2c1)C(=O)O; dNMeY = CN[C@H](Cc1ccc(O)cc1)C(=O)O; Tic = O=C(O)[C@@H]1Cc2ccccc2CN1; NMeL = CN[C@@H](CC(C)C)C(=O)O; NMeS = CN[C@@H](CO)C(=O)O; Thz = O=C(O)[C@@H]1CSCN1; dNMeA = CN[C@H](C)C(=O)O; Hexanoyl = CCCCCC(=O)*
Hi! Just check whether EC50 (µM), activation of Tango CMKLR1-bla U2OS cells is below 0.2 µM. Below gives true (1), equal or above gives false (0).

Consider the following illustrative entries.
{3,5‑dihydroxybenzoyl}-[dY]FLP[dS]QF[dA][Tic]S-OH [YW-79]; true (1)
[dY]FL[Pro(5R-Ph)][dS]QF[dA][Tic]S-OH (N-terminus assumed; SMILES CC(C)C[C@H](NC(=O)[C@H](Cc1ccccc1)NC(=O)[C@H](N)Cc1ccc(O)cc1)C(=O)N1[C@@H](c2ccccc2)CC[C@H]1C(=O)N[C@H](CO)C(=O)N[C@@H](CCC(N)=O)C(=O)N[C@@H](Cc1ccccc1)C(=O)N[C@H](C)C(=O)N1Cc2ccccc2C[C@H]1C(=O)N[C@@H](CO)C(=O)O) [YW-112]; true (1)
[dF]FLP[dS]QF[dA][Tic]S-OH (N-terminus assumed; SMILES CC(C)C[C@H](NC(=O)[C@H](Cc1ccccc1)NC(=O)[C@H](N)Cc1ccccc1)C(=O)N1CCC[C@H]1C(=O)N[C@H](CO)C(=O)N[C@@H](CCC(N)=O)C(=O)N[C@@H](Cc1ccccc1)C(=O)N[C@H](C)C(=O)N1Cc2ccccc2C[C@H]1C(=O)N[C@@H](CO)C(=O)O) [YW-97]; true (1)
Hexanoyl-[dY]F[NMeL]P[dS]QF[dA][Tic]S [YW-193]; true (1)
[dY]F[NMeL]P[dT]QF[dA][Tic]S [YW-204]; true (1)
[dY]FLP[dS]QF[dA][Bip]S-OH [YW-95]; false (0)
[dY]FLP[dS]QF[dNMeA][Tic]S-OH [YW-109]; false (0)
[dY]FLP[dS][Gly(Nα-CH2CH2CONH2)]F[dA][Tic]S-OH [YW-108]; false (0)

# check: EC50 (µM), activation of Tango CMKLR1-bla U2OS cells < 0.2 µM for [dY]FLP[dS]QF[dA][Ala(dip)]S-OH [YW-94] false (0)

Quick check: EC50 (µM), activation of Tango CMKLR1-bla U2OS cells of [dY]FLP[dS]QF[dA][Tic]S-NH2 (N-terminus assumed; SMILES CC(C)C[C@H](NC(=O)[C@H](Cc1ccccc1)NC(=O)[C@H](N)Cc1ccc(O)cc1)C(=O)N1CCC[C@H]1C(=O)N[C@H](CO)C(=O)N[C@@H](CCC(N)=O)C(=O)N[C@@H](Cc1ccccc1)C(=O)N[C@H](C)C(=O)N1Cc2ccccc2C[C@H]1C(=O)N[C@@H](CO)C(N)=O) [YW-189] under 0.2 µM? true (1)

Here's an entry: [dNMeY]F[NMeL][Thz][dS]Q[2Nal][dA][Tic]S-OH (N-terminus assumed; SMILES CN[C@H](Cc1ccc(O)cc1)C(=O)N[C@@H](Cc1ccccc1)C(=O)N(C)[C@@H](CC(C)C)C(=O)N1CSC[C@H]1C(=O)N[C@H](CO)C(=O)N[C@@H](CCC(N)=O)C(=O)N[C@@H](Cc1ccc2ccccc2c1)C(=O)N[C@H](C)C(=O)N1Cc2ccccc2C[C@H]1C(=O)N[C@@H](CO)C(=O)O) [YW-148] . Is its EC50 (µM), activation of Tango CMKLR1-bla U2OS cells below 0.2 µM? true (1)

Please indicate whether the reported EC50 (µM), activation of Tango CMKLR1-bla U2OS cells of [dY]F[NPrL]P[dS]QF[dA][Tic]S [YW-184] is strictly below 0.2 µM. true (1)

A record lists [dNMeY]F[NMeL]P[dS]Q[2Nal][dA][Tic][NMeS]-OH (N-terminus assumed; SMILES CN[C@H](Cc1ccc(O)cc1)C(=O)N[C@@H](Cc1ccccc1)C(=O)N(C)[C@@H](CC(C)C)C(=O)N1CCC[C@H]1C(=O)N[C@H](CO)C(=O)N[C@@H](CCC(N)=O)C(=O)N[C@@H](Cc1ccc2ccccc2c1)C(=O)N[C@H](C)C(=O)N1Cc2ccccc2C[C@H]1C(=O)N(C)[C@@H](CO)C(=O)O) [YW-146] . Is its EC50 (µM), activation of Tango CMKLR1-bla U2OS cells below 0.2 µM? true (1)

# check: EC50 (µM), activation of Tango CMKLR1-bla U2OS cells < 0.2 µM for [dNMeY]F[NMeL]P[dS]QF[dA][Tic]S-OH (N-terminus assumed; SMILES CN[C@H](Cc1ccc(O)cc1)C(=O)N[C@@H](Cc1ccccc1)C(=O)N(C)[C@@H](CC(C)C)C(=O)N1CCC[C@H]1C(=O)N[C@H](CO)C(=O)N[C@@H](CCC(N)=O)C(=O)N[C@@H](Cc1ccccc1)C(=O)N[C@H](C)C(=O)N1Cc2ccccc2C[C@H]1C(=O)N[C@@H](CO)C(=O)O) [YW-163] true (1)

FYI, the data here is from patent US20210403506A1.
